- System: Bbp^L584A (Staphylococcus aureus, UniProt Q14U76, L584A)
- Construct: The fragment of the Bbp gene (corresponding to 273–598 aa) was amplified; GST (pGEX-6p-1) (N); made in house; host or cells: Escherichia coli BL21
- Assay procedure: Surface plasmon resonance (SPR), immobilized mutant L584A
- Particulars: BIAcore T200, L584A mutant immobilized on CM5 chip (3375RU), peptide 62.5 to 0.976 μmol/L in 200 mmol/L NaCl, 20 mmol/L HEPES (pH 7.5), 30 μL/min, binding 60 s, dissociation 120 s
- Excerpt: Figure 5 SPR analyses of the interactions between Bbp ^273−598 WT and mutants (T582A and L584A) and the Fg α ^561−575 (A–C), respectively. The proteins were immobilized on a BIA-core sensor chip. The fragment of the Bbp gene (corresponding to 273–598 aa) was amplified using S. aureus ATCC 25923 genomic DNA by PCR. The gene fragments of mutated proteins Bbp^T582A and Bbp^L584A followed the same protocol. […]
pKd: −log10 of the molar value. Where no end group is shown, it is not given here.
Assay metric: pKd

Input sequence: SKQFTSSTSYNRGDS [Fg α^561−575]
Assay metric: pKd
Recorded value: 6.34

Value source: paper PMC4598324
